Taken from patent US8378100B2.

Target: recombinant human ATX (Homo sapiens, UniProt Q13822)
Experiment: Choline detection assay for ATX
Format: biochemical
Settings: Table 1 (f1-f34); 10 μM test compound as printed; activity without test compound = 100%
measured endpoint: ATX activity (%) 10 Mm

Some entries whose results are on file:
CCCCCCCCCCCCCCCC(=O)N[C@H](Cc1ccc(OC)cc1)C(O)CP(=O)(O)O (single isomer, unassigned) [f20]; 84%
CCCCCCCCCCCCCCCC(=O)N[C@H](Cc1ccc(OCc2ccccc2)cc1)C(O)CP(=O)(O)O (single isomer, unassigned) [f9]; 76%
CCCCCCCCCCCCCCCC(=O)N[C@H](Cc1ccc(OCCC)cc1)C(O)CP(=O)(O)O (single isomer, unassigned) [f24]; 108%
CCCCCCCCCCCCCCCC(=O)N[C@H](Cc1ccc(OC)cc1)C(O)CP(=O)(O)O (single isomer, unassigned) [f19]; 78%
CCCCCCCCCCCCCCCC(=O)N[C@H](Cc1ccc(OCCC)cc1)C(O)CP(=O)(O)O (single isomer, unassigned) [f23]; 79%

[in] Fill in ATX activity (%) 10 Mm for record CCCCCCCCCCCCCCCC(=O)N[C@H](Cc1ccc(OCCCCC)cc1)C(O)CP(=O)(O)O (single isomer, unassigned) [f28]
[out] 82%

[in] Specify reported ATX activity (%) 10 Mm for the compound shown: CCCCCCCCCCCCCCCC(=O)N[C@@H](Cc1ccc(OCC2CCCCC2)cc1)C(O)CP(=O)(O)O (single isomer, unassigned)
[out] 80%

[in] Name the recorded ATX activity (%) 10 Mm of the compound listed here: CCCCCCCCCCCCCCCC(=O)N[C@H](Cc1ccc(OCCCCC)cc1)C(O)CP(=O)(O)O (single isomer, unassigned) [f27]
[out] 85%

[in] Indicate its recorded ATX activity (%) 10 Mm; the compound in question is CCCCCCCCCCCCCCCC(=O)N[C@H](Cc1ccc(OCc2ncc(C)c(OC)c2C)cc1)C(O)CP(=O)(O)O (single isomer, unassigned) [f16]
[out] 64%

[in] Answer with reported ATX activity (%) 10 Mm of CCCCCCCCCCCCCCCC(=O)N[C@@H](Cc1ccc(OCc2ccccc2)cc1)C(O)CP(=O)(O)O (single isomer, unassigned) [f8]
[out] 83%

[in] Please give measured ATX activity (%) 10 Mm of the following entry: CCCCCCCCCCCCCCCC(=O)N[C@@H](Cc1ccc(OCc2ncc(C)c(OC)c2C)cc1)C(O)CP(=O)(O)O (single isomer, unassigned)
[out] 21%

[in] Please give the documented ATX activity (%) 10 Mm of CCCCCCCCCCCCCCCC(=O)N[C@@H](Cc1ccc(OC)cc1)C(O)CP(=O)(O)O (single isomer, unassigned) [f22]
[out] 80%

[in] Give reported ATX activity (%) 10 Mm value for CCCCCCCCCCCCCCCC(=O)N[C@H](Cc1ccc(OCc2ccccc2)cc1)C(O)CP(=O)(O)O (single isomer, unassigned) [f6]
[out] 81%
